experiment: BET inhibitor-based combinations targeting novel dependencies in MECOM-rearranged (r) AML: AML-194 cell line (AID 2202237; also: nearly all actives have a fitted effect of over 40% in size); conditions: AML-194 (MECOM-r AML) viability, CellTiter-Glo, 48 h; series mostly up to 46 µM
Results filed as inconclusive are left out. The source made the active and inactive calls. Calls follow the shape of the dose curve; as a rule, active = well fitted inhibition curve with a large enough effect; inconclusive = small, poorly fitted or top-dose-only effect; inactive = flat fitted curve, though single readings scatter.
Pick one: active, inactive

The examples below pair each entry with its known result.
{"columns": ["compound", "category"],
 "data": [
  ["CC1c2ccccc2CN1NC(=O)c1ccc(Cl)c(S(N)(=O)=O)c1 (centres undefined)", "inactive"],
  ["C[C@H]1c2cccc(O)c2C(O)=C2C(=O)[C@]3(O)C(O)=C(C(N)=O)C(=O)[C@@H](N(C)C)[C@@H]3[C@@H](O)[C@@H]21", "active"],
  ["c1coc(CNc2ncnc3nc[nH]c23)c1", "inactive"],
  ["O=c1ccn([C@@H]2O[C@H](CO)[C@@H](O)[C@H]2O)c(=O)[nH]1", "inactive"],
  ["NC1(c2ccc(-c3nc4ccn5c(=O)[nH]nc5c4cc3-c3ccccc3)cc2)CCC1", "active"],
  ["CCOC(=O)C1=C[C@@H](OC(CC)CC)[C@H](NC(C)=O)[C@@H](N)C1", "inactive"]
]}

q: Assay result, entry CC(C)CNc1ccnc(NCc2csc(-c3ccccc3)n2)n1 — outcome?
a: active

q: Assay result, entry CNC(=O)CN1CCC(Oc2cc3c(Nc4cccc(Cl)c4F)ncnc3cc2OC)CC1 — outcome?
a: inactive

q: Assay result, entry Cn1c(=O)c(-c2c(Cl)cccc2Cl)cc2cnc(Nc3cccc(C(=O)O)c3)nc21 — outcome?
a: inactive
